Target: T1, human VPAC2 receptor (human, UniProt P41587 24-438)
T1 sequence (looked up): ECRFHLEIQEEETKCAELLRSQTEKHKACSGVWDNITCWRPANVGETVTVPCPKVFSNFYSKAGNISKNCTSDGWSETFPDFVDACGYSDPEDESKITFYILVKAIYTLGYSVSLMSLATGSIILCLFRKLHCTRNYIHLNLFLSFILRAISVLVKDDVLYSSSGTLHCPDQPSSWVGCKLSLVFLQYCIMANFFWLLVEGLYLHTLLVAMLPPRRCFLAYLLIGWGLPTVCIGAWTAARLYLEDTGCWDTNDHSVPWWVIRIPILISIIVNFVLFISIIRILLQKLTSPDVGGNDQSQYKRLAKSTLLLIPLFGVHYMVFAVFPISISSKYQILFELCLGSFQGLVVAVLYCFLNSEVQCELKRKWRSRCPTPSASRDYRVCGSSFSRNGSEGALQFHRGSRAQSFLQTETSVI
Test: cell-based or functional assay
Where no end group is shown, it is not given here. [ ]: non-standard residue; d: D form. The star is where a group is joined. hArg = N=C(N)NCCCC[C@H](N)C(=O)O; Orn = NCCC[C@H](N)C(=O)O; Hexanoyl = CCCCCC(=O)*; Aib = CC(C)(N)C(=O)O
assay_readout: EC50 cAMP, Alpha Screen (nM)
All answers are understood in nM, so give the number only.

Here are 3 binders together with their reported answers.
{"binder": "Hexanoyl-HSDAVFTDNYTRLR[Aib]QVAA[Aib]KYLQSI[dK][dK]GGPSSGAPPPS (ends and bridges not checked) [P353]", "EC50 cAMP, Alpha Screen, nM": 0.18}
{"binder": "Hexanoyl-HSDAVFTDNYTRLRKQVAAKKYWQSIKNKRYGGPSSGAPPPS [P230]", "EC50 cAMP, Alpha Screen, nM": 0.3}
{"binder": "Hexanoyl-HSDAVFTDNYTRL[hArg][Orn]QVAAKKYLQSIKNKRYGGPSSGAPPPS (ends and bridges not checked) [P308]", "EC50 cAMP, Alpha Screen, nM": 0.26}

EC50 cAMP, Alpha Screen measured on Hexanoyl-HSDAVFTDNYTRLQ[Aib]QVAA[Aib]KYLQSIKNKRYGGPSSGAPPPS (ends and bridges not checked) [P302] = 0.45

EC50 cAMP, Alpha Screen measured on Hexanoyl-H[Aib]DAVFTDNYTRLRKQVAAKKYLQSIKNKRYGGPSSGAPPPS (ends and bridges not checked) [P166] = 0.15

EC50 cAMP, Alpha Screen measured on Hexanoyl-HSDAVFTDNYTRLRKQVAA[Aib]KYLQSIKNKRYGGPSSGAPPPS (ends and bridges not checked) [P169] = 0.14

EC50 cAMP, Alpha Screen measured on Hexanoyl-HSDAVFTDNYTRLR[Aib]QVAAVKYLQSIKNKRYGGPSSGAPPPS (ends and bridges not checked) [P262] = 0.24

EC50 cAMP, Alpha Screen measured on Hexanoyl-HSDAVFTDNYTRLLAKVALQKYLQSIKNKRYGGPSSGAPPPS [P196] = 0.23

EC50 cAMP, Alpha Screen measured on HSDAVWTDNYTRLRKQVAAKKYLQSIKNKRYGGPSSGAPPPS [P67] = 94.1

EC50 cAMP, Alpha Screen measured on Hexanoyl-HSDAVFTDNYTRL[hArg]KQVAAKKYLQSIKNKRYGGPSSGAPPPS (ends and bridges not checked) [P305] = 0.17
